meta.source: paper PMC11301271

molecular target: human MK (Homo sapiens, UniProt Q03426)
Sequence (Q03426 whole entry): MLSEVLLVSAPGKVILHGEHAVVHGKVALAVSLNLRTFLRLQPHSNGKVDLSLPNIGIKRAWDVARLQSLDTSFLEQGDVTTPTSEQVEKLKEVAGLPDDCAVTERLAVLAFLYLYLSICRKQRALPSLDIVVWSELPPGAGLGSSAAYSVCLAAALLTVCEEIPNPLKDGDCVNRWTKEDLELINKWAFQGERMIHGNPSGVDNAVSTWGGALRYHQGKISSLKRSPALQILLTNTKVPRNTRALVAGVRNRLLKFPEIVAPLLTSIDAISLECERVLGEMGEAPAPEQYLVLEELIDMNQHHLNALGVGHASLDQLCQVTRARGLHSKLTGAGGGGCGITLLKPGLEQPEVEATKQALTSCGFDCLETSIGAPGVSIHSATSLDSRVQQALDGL
IC50 values, listed per item
Quantity Kind: IC50 (nM)

>>> recorded_value("O=P(O)(O)C(Nc1ncnc2sc(-c3ccc(F)cc3)cc12)c1ccccc1 (stereo not drawn)")
46
>>> recorded_value("COc1cc(C)c(Cl)cc1-c1cc2c(NC(c3ccccc3)P(=O)(O)O)ncnc2s1 (stereo not drawn)")
1900
>>> recorded_value("COc1cccc(OC)c1-c1cc2c(NC(c3ccccc3)P(=O)(O)O)ncnc2s1 (stereo not drawn)")
3300
>>> recorded_value("COc1cc(C)c(F)cc1-c1cc2c(NC(c3ccccc3)P(=O)(O)O)ncnc2s1 (stereo not drawn)")
2300
>>> recorded_value("Cc1ccc(-c2cc3c(NC(Cc4ccccc4)P(=O)(O)O)ncnc3s2)cc1Cl (stereo not drawn)")
2500
>>> recorded_value("CC(C)=CCC/C(C)=C/CC/C(C)=C/CO[P@@](=O)(O)OP(=O)(O)O (stereo in doubt) [FPP, farnesyl pyrophosphate, reference compound]")
12
>>> recorded_value("Cc1ccc(-c2cc3c(NC(Cc4ccccc4)P(=O)(O)O)ncnc3s2)cc1OC1CC1 (stereo not drawn)")
1600
>>> recorded_value("O=P(O)(O)C(Nc1ncnc2sc(-c3cccc(C(F)(F)F)c3)cc12)c1ccccc1 (stereo not drawn)")
120
>>> recorded_value("Cn1cc(CCP(=O)(O)O)c2cc(-c3ccc(C(F)(F)F)cc3)ccc21")
8.1
